test: Tissue distribution of curcumin and THC at necropsy 15 minutes post-infusion; design: species or system Beagle dogs; settings: both sexes, beagle, dog, in vivo, 10 mg/kg, Table 15, 2 hour infusion; −H3PO4; read-out: Tissue analysis, Cortex

compound | readout units | concentration at 15 min
COc1cc(CCC(=O)CC(=O)CCc2ccc(O)c(OC)c2)ccc1O [THC, tetrahydrocurcumin] | ng/g | 0.12

---

assay: Plasma, urine and bile levels of curcumin and THC 15 minutes post-infusion; assay type: in vivo, Beagle dogs; conditions: both sexes, beagle, dog, in vivo, 10 mg/kg, higher infusion rate (5 mg/kg/hr); read-out: bile to plasma concentration ratio
measured endpoint: Kp

molecule | observed
COc1cc(CCC(=O)CC(=O)CCc2ccc(O)c(OC)c2)ccc1O [THC, tetrahydrocurcumin] | 1.2

---

assay: Plasma, urine and bile levels of curcumin and THC 15 minutes post-infusion; format: in vivo, Beagle dogs; settings: both sexes, beagle, dog, in vivo, 10 mg/kg, low infusion rate (1.25 mg/kg/hr); read-out: urine to plasma concentration ratio

molecule | Kp
COc1cc(CCC(=O)CC(=O)CCc2ccc(O)c(OC)c2)ccc1O [THC, tetrahydrocurcumin] | 3.1

---

assay: Plasma pharmacokinetics of curcumin and THC during and after intravenous infusion of liposomal curcumin; type: in vivo, Beagle dogs; details: both sexes, Beagle, dog, in vivo, 10 mg/kg, 1.25 mg/kg/hr; 8 hr; mean±SE; read-out: [Plasma + PO4]
measured endpoint: concentration at 8 hr (ng/mL)

compound | readout units | observed
COc1cc(CCC(=O)CC(=O)CCc2ccc(O)c(OC)c2)ccc1O [THC, tetrahydrocurcumin] | ng/mL | 62

---

experiment: Plasma, urine and bile levels of curcumin and THC 15 minutes post-infusion; type: in vivo, Beagle dogs; conditions: both sexes, Beagle, dog, in vivo, 10 mg/kg, 15 min after 2 hour infusion; + H3PO4; mean±SE; read-out: Urine level
measured endpoint: concentration at 15 min (ng/mL)

molecule | observed
COc1cc(CCC(=O)CC(=O)CCc2ccc(O)c(OC)c2)ccc1O [THC, tetrahydrocurcumin] | 3590

---

experiment: Tissue distribution of curcumin and THC at necropsy 15 minutes post-infusion; set-up: species or system Beagle dogs; conditions: both sexes, beagle, dog, in vivo, 10 mg/kg, 8 hr infusion; H3PO4 stabilized; read-out: Kp [tissue]/[plasma], Cortex, Brain
measured endpoint: Kp at 8 h

compound | measured endpoint | observed
COc1cc(CCC(=O)CC(=O)CCc2ccc(O)c(OC)c2)ccc1O [THC, tetrahydrocurcumin] | Kp at 8 h | 0.0047

---

assay: in vivo; parameters: species or system Beagle dogs; conditions: both sexes, beagle, dog, in vivo, Kp [tissue]/[plasma], Cortex, Brain

molecule | Kp at 2 h
COc1cc(/C=C/C(=O)CC(=O)/C=C/c2ccc(O)c(OC)c2)ccc1O [Curcumin, reference compound] | 0.0134

---

test: Tissue distribution of curcumin and THC at necropsy 15 minutes post-infusion; set-up: species or system Beagle dogs; details: both sexes, beagle, dog, in vivo, 10 mg/kg, 2 hour infusion; No H3PO4; read-out: Tissue level, Hippocampus
measured endpoint: concentration at 15 min (ng/g)

compound | readout units | observed
COc1cc(CCC(=O)CC(=O)CCc2ccc(O)c(OC)c2)ccc1O [THC, tetrahydrocurcumin] | ng/g | 0.75

---

experiment: Tissue distribution of curcumin and THC at necropsy 15 minutes post-infusion; design: species or system Beagle dogs; conditions: both sexes, beagle, dog, in vivo, 10 mg/kg, Two hour infusion; H3PO4 stabilized; read-out: Average tissue concentration, Hippocampus
measured endpoint: concentration at 15 min (ng/g)

molecule | measured endpoint | observed
COc1cc(CCC(=O)CC(=O)CCc2ccc(O)c(OC)c2)ccc1O [THC, tetrahydrocurcumin] | concentration at 15 min | 6.46

---

assay: Tissue distribution of curcumin and THC at necropsy 15 minutes post-infusion; set-up: species or system Beagle dogs; conditions: both sexes, beagle, dog, in vivo, 10 mg/kg, Average tissue concentration, Intestinal wall, Eight hour infusion; H3PO4 stabilized
measured endpoint: concentration at 15 min (ng/g)

molecule | readout units | observed
COc1cc(CCC(=O)CC(=O)CCc2ccc(O)c(OC)c2)ccc1O [THC, tetrahydrocurcumin] | ng/g | 0.09

---

experiment: Tissue distribution of curcumin and THC at necropsy 15 minutes post-infusion; design: species or system Beagle dogs; conditions: both sexes, beagle, dog, in vivo, 10 mg/kg, 8 hour infusion; Plus H3PO4; read-out: Tissue level, Urinary Bladder

molecule | concentration at 15 min [ng/g]
COc1cc(CCC(=O)CC(=O)CCc2ccc(O)c(OC)c2)ccc1O [THC, tetrahydrocurcumin] | 1.11

---

experiment: Tissue distribution of curcumin and THC at necropsy 15 minutes post-infusion; design: species or system Beagle dogs; settings: both sexes, beagle, dog, in vivo, 10 mg/kg, 2 hour infusion; Plus H3PO4; read-out: Tissue level, Urinary Bladder

molecule | readout units | concentration at 15 min
COc1cc(CCC(=O)CC(=O)CCc2ccc(O)c(OC)c2)ccc1O [THC, tetrahydrocurcumin] | ng/g | 0.87

---

experiment: Tissue distribution of curcumin and THC at necropsy 15 minutes post-infusion; design: species or system Beagle dogs; details: both sexes, beagle, dog, in vivo, 10 mg/kg, Two hour infusion; H3PO4 stabilized; read-out: Average tissue concentration, Spleen
measured endpoint: concentration at 15 min (ng/g)

compound | measured endpoint | observed
COc1cc(CCC(=O)CC(=O)CCc2ccc(O)c(OC)c2)ccc1O [THC, tetrahydrocurcumin] | concentration at 15 min | 1.6

---

experiment: in vivo; format: in vivo, Beagle dogs; settings: both sexes, beagle, dog, in vivo, iv, 10 mg/kg

compound | MRT (min)
COc1cc(/C=C/C(=O)CC(=O)/C=C/c2ccc(O)c(OC)c2)ccc1O [Curcumin, reference compound] | 36

---

experiment: Plasma pharmacokinetics of curcumin and THC during and after intravenous infusion of liposomal curcumin; format: in vivo, Beagle dogs; settings: both sexes, Beagle, dog, in vivo, 10 mg/kg, 1.25 mg/kg/hr; 15 min; mean±SE; read-out: [Plasma]

compound | concentration at 15 min (ng/mL)
COc1cc(CCC(=O)CC(=O)CCc2ccc(O)c(OC)c2)ccc1O [THC, tetrahydrocurcumin] | 72

---

experiment: Tissue distribution of curcumin and THC at necropsy 15 minutes post-infusion; set-up: species or system Beagle dogs; conditions: both sexes, beagle, dog, in vivo, 10 mg/kg, 2 hr infusion; H3PO4 stabilized; read-out: Kp [tissue]/[plasma], Muscle

molecule | Kp at 2 h
COc1cc(CCC(=O)CC(=O)CCc2ccc(O)c(OC)c2)ccc1O [THC, tetrahydrocurcumin] | 0.0011

---

assay: in vivo; assay type: in vivo, Beagle dogs; conditions: both sexes, Beagle, dog, in vivo, Plasma level

compound | concentration at 15 min / ng/mL
COc1cc(/C=C/C(=O)CC(=O)/C=C/c2ccc(O)c(OC)c2)ccc1O [Curcumin, reference compound] | 0

---

assay: Tissue distribution of curcumin and THC at necropsy 15 minutes post-infusion; design: species or system Beagle dogs; settings: both sexes, beagle, dog, in vivo, 10 mg/kg, 2 hr infusion; H3PO4 stabilized; read-out: Kp [tissue]/[plasma], Cortex, Brain
measured endpoint: Kp at 2 h

compound | measured endpoint | observed
COc1cc(CCC(=O)CC(=O)CCc2ccc(O)c(OC)c2)ccc1O [THC, tetrahydrocurcumin] | Kp at 2 h | 0.0006

---

experiment: in vivo; type: in vivo, Beagle dogs; conditions: both sexes, beagle, dog, in vivo, iv, 10 mg/kg

compound | readout units | half-life
COc1cc(/C=C/C(=O)CC(=O)/C=C/c2ccc(O)c(OC)c2)ccc1O [Curcumin, reference compound] | min | 24

---

assay: Tissue distribution of curcumin and THC at necropsy 15 minutes post-infusion; design: species or system Beagle dogs; conditions: both sexes, beagle, dog, in vivo, 10 mg/kg, 2 hour infusion; No H3PO4; read-out: Tissue level, Cortex, Brain

molecule | concentration at 15 min / ng/g
COc1cc(CCC(=O)CC(=O)CCc2ccc(O)c(OC)c2)ccc1O [THC, tetrahydrocurcumin] | 0.68

---

Experiment: Tissue distribution of curcumin and THC at necropsy 15 minutes post-infusion
Parameters: species or system Beagle dogs
Details: both sexes, beagle, dog, in vivo, 10 mg/kg, 8 hr infusion; H3PO4 stabilized; read-out: Kp [tissue]/[plasma], Lungs
Description: The test article will be administered to 8 Beagle dogs by intravenous infusion over two hours (Part A) or eight hours (Part B) as shown in Table 6. Multiple samples of tissue weighing approximately 1 gram were removed and snap frozen in the presence or absence of phosphoric acid (H3PO4). For all tissue samples, the levels of curcumin and THC were determined using a method developed by the Bioanalytical Department at Nucro-Technics. […]

compound | Kp at 8 h
COc1cc(CCC(=O)CC(=O)CCc2ccc(O)c(OC)c2)ccc1O [THC, tetrahydrocurcumin] | 0.0609

---

test: Plasma pharmacokinetics of curcumin and THC during and after intravenous infusion of liposomal curcumin; format: in vivo, Beagle dogs; conditions: both sexes, Beagle, dog, in vivo, 10 mg/kg, 5 mg/kg/hr; 15 min; mean±SE; read-out: [Plasma]

compound | concentration at 15 min
COc1cc(CCC(=O)CC(=O)CCc2ccc(O)c(OC)c2)ccc1O [THC, tetrahydrocurcumin] | 483 ng/mL
